- assayInfo: Caseum binding using surrogate caseum
caseum distribution unbound overview

# compoundString, caseum distribution unbound
measured = [
    ("CN(Cc1ccc(C(F)(F)F)cc1)c1cc(C(=O)Nc2ccccc2)ncn1", "0.1%"),
    ("CN(Cc1ccc(F)cc1)c1cc(C(=O)Nc2nncs2)ncn1", "0.5%"),
    ("CN1CCN(c2ccc(NC(=O)c3cc(N(C)Cc4ccc(C(F)(F)F)cc4)ncn3)cc2)CC1", "0.1%"),
    ("CN(Cc1ccc(C(F)(F)F)nc1)c1cc(C(=O)Nc2nncs2)ncn1", "3.6%"),
]

###

- Format: in vitro ADME

# compoundString, PAMPA log Papp
records = [
    ("CN1CCN(c2ccc(NC(=O)c3cc(N(C)Cc4ccc(C(F)(F)F)cc4)ncn3)cc2)CC1", "–4.5"),
    ("CN(Cc1ccc(C(F)(F)F)nc1)c1cc(C(=O)Nc2nncs2)ncn1", "–3.9"),
    ("CN(Cc1ccc(C(F)(F)F)nc1)c1cc(C(=O)Nc2ccccc2)ncn1", "–3.8"),
    ("CN(Cc1ccc(C(F)(F)F)cc1)c1cc(C(=O)Nc2ccccc2)ncn1", "–4.9"),
]

###

- assayInfo: in vivo
- testParameters: male, C57/BL6, mouse, po, 20 mg/kg
Reported AUC(0-inf) at 24 h values are given for each entry in this list.

# compoundString, AUC(0-inf) at 24 h
data = [
    ("CN1CCN(c2ccc(NC(=O)c3cc(N(C)Cc4ccc(C(F)(F)F)cc4)ncn3)cc2)CC1", "9.4 µM·h"),
    ("CN(Cc1ccc(C(F)(F)F)cc1)c1cc(C(=O)Nc2ccccc2)ncn1", "22.2 µM·h"),
    ("CN(Cc1ccc(C(F)(F)F)nc1)c1cc(C(=O)Nc2nncs2)ncn1", "93.6 µM·h"),
    ("CN(Cc1ccc(C(F)(F)F)nc1)c1cc(C(=O)Nc2ccccc2)ncn1", "33.3 µM·h"),
    ("CN(Cc1ccc(F)cc1)c1cc(C(=O)Nc2nncs2)ncn1", "17 µM·h"),
]

###

- studySystem: Mycobacterium bovis BCG extract proteins (Mycobacterium bovis BCG)

# compoundString, IC50
measured = [
    ("O=C(Nc1ccccc1)c1ccc(=O)n(Cc2ccc(F)cc2)c1", "≥ 30 µM"),
]

###

- assayInfo: physchem
- Format: physicochemical
- testParameters: pH 6.5, fasted-state simulated intestinal fluid, read-out: FassiF solubility at pH 6.5
observable: solubility at 2 h

# compound, result
records = [
    ("CN(Cc1ccc(C(F)(F)F)nc1)c1cc(C(=O)Nc2nncs2)ncn1 [Compound 52]", "> 100 µM"),
]

###

Recorded half-life at 24 h, one value per entry.
- assayInfo: in vivo
- testParameters: male, C57/BL6, mouse, po, 20 mg/kg

# molecule, half-life at 24 h, h
measured = [
    ("CN(Cc1ccc(C(F)(F)F)cc1)c1cc(C(=O)Nc2ccccc2)ncn1 [Compound 12]", 8.7),
    ("CN(Cc1ccc(F)cc1)c1cc(C(=O)Nc2nncs2)ncn1 [Compound 51]", 4.4),
    ("CN1CCN(c2ccc(NC(=O)c3cc(N(C)Cc4ccc(C(F)(F)F)cc4)ncn3)cc2)CC1 [Compound 40]", 15.8),
]

###

- studySystem: Mycobacterium bovis BCG extract proteins (Mycobacterium bovis BCG)
- assayInfo: biochemical
- Format: binding
- testParameters: pIC50
observable: IC50

# compoundString, observable, result
data = [
    ("O=C(Nc1ccccc1)c1ccc(=O)n(Cc2ccc(F)cc2)c1", "IC50", "≥ 30.2 µM"),
]
